The measurements presented in this section are drawn from BindingDB's records for patent WO2022081807.

Here's what we have: pIC50 numbers for Histone acetyltransferase KAT6A [507-778] (Human, UniProt Q92794).
Note on pIC50: it is the negative log10 of concentration, concentration in mol/L.

Examples with their reported pIC50 follow.
> print(dat)
                               smiles.entry                          target.or.system  assay.readout  readout.number
1  O=C(NS(=O)(=O)c1cccc2c1OCC2)c1cc2c(F)cc(N3CCC3)cc2o1  Histone acetyltransferase KAT6A [507-778] (Human, UniProt Q92794)          pIC50            7.62
2  Cc1ccc2cccc(S(=O)(=O)NC(=O)c3cc4c(F)cc(N5CCC5)cc4o3)c2n1  Histone acetyltransferase KAT6A [507-778] (Human, UniProt Q92794)          pIC50            7.85
3  CC1(C)CCN1c1cc(F)c2cc(C(=O)NS(=O)(=O)c3ccccc3-c3ccccc3)oc2c1  Histone acetyltransferase KAT6A [507-778] (Human, UniProt Q92794)          pIC50            5.92

Recorded pIC50 of `O=C(NS(=O)(=O)c1cc(Br)cc2c1OCC2)c1cc2c(F)cc(N3CCC3)cc2o1` , please. 7.68

Recorded pIC50 of `CN(C)c1ccccc1S(=O)(=O)NC(=O)c1cc2c(F)cc(N3CCC3)cc2o1` , please. 8.12
